System: prostaglandin synthetases of lungs of guinea pigs
ASSAY PROCEDURE: Inhibitory effect against biosynthesis of prostaglandins starting with arachidonic acid by prostaglandin synthetases of lungs of guinea pigs (Vane)
Type: biochemical
APPLIED CONDITIONS: guinea pig lung homogenate supernatant, 10 μg arachidonic acid, 30 minutes at 37° C; prostaglandin-like activity read on isolated rat colon; read-out: CI50 (inhibited by 50% the biosynthesis activity)
Excerpt: C. INHIBITORY EFFECT AGAINST BIOSYNTHESIS OF PROSTAGLANDINS SYNTHESIS OF PROSTAGLANDINS STARTING WITH ARACHIDONIC ACID BY MEANS OF PROSTAGLANDIN SYNTHETASES OF LUNGS OF GUINEA PIGS. This test used the procedure of Vane [Nature New Biology, Vol. 231 (1971), p. 232-235] wherein the lungs of adult guinea pigs (2 per series) were rapidly removed and washed with a modified, iced Bucher medium. […]
RECORDED METRIC: pIC50
// pIC50 is dimensionless: -log10 of concentration (M)

Data request: Give measured pIC50 for CCCCC[C@@H](/C=C/[C@H]1CC[C@@H](O)[C@@H]1C(=O)OCC)OC (relative stereo) (prostaglandin synthetases of lungs of guinea pigs).
Data returned: 3.17

Data request: Give measured pIC50 for CCCCCCCCCC(=O)O[C@H](/C=C/[C@H]1CC[C@H](O)[C@@H]1C(=O)OCC)CCCCC (relative stereo) (prostaglandin synthetases of lungs of guinea pigs).
Data returned: 3.86

Data request: Give measured pIC50 for CCCCCCCCCC(=O)O[C@H](/C=C/[C@H]1CC[C@@H](O)[C@@H]1C(=O)OCC)CCCCC (relative stereo) (prostaglandin synthetases of lungs of guinea pigs).
Data returned: 3.95

Data request: Give measured pIC50 for CCCCC[C@@H](/C=C/[C@H]1CC[C@H](O)[C@@H]1C(=O)OCC)OC (relative stereo) (prostaglandin synthetases of lungs of guinea pigs).
Data returned: 3.36

Data request: Give measured pIC50 for CCCCC[C@@H](/C=C/[C@H]1CC[C@H](O)[C@@H]1C(=O)OCC)OC(=O)CCC(=O)O (relative stereo) (prostaglandin synthetases of lungs of guinea pigs).
Data returned: 3.91
